test description: AUC (0 to 24 hrs) in Sprague-Dawley rat at 2 mg/kg, po
Type: ADME, organism-based
Parameters: time < 24 hr, dose 2 mg/kg, route oral
condition description: plasma
readout: AUC(0-t) at 24 h

Lookup: What measured AUC(0-t) at 24 h goes with O=S(=O)(Nc1cc(Cl)c(Oc2cnc3ccccc3c2)c(Cl)c1)c1ccc(Cl)cc1Cl [INT131] ?
Found: 8.3 µM·h

----------
test description: AUC (0 to 24 hrs) in Sprague-Dawley rat at 0.3 mg/kg, po
Type: ADME, organism-based
Set-up: time < 24 hr, dose 0.3 mg/kg, route oral
condition description: plasma
readout: AUC(0-t) at 24 h (µM·h)
Enter your answer as a number in µM·h; do not include the unit.

Lookup: What measured AUC(0-t) at 24 h goes with O=S(=O)(Nc1cc(Cl)c(Oc2cnc3ccccc3c2)c(Cl)c1)c1ccc(Cl)cc1Cl [INT131] ?
Found: 2.6

----------
test description: Cmax in Sprague-Dawley rat at 2 mg/kg, po
Assay type: ADME, organism-based
Set-up: dose 2 mg/kg, route oral
condition description: in vivo
readout: Cmax (nM)
Enter your answer as a number in nM; do not include the unit.

Lookup: What measured Cmax goes with O=S(=O)(Nc1cc(Cl)c(Oc2cnc3ccccc3c2)c(Cl)c1)c1ccc(Cl)cc1Cl [INT131] ?
Found: 660

----------
test description: AUC (0 to 24 hrs) in Sprague-Dawley rat at 5 mg/kg, po
Format: ADME, organism-based
Design: time < 24 hr, dose 5 mg/kg, route oral
condition description: plasma
readout: log10 of AUC(0-t) at 24 h (log10 of the value in µM·h)
The figures below represent log10 of AUC(0-t) at 24 h, where AUC(0-t) at 24 h is stated in µM·h.

1. O=S(=O)(Nc1ccc(Oc2cnc3ccccc3c2)c(Cl)c1)c1ccc(Cl)cc1Cl
2.02
2. CCNC(=O)c1cc(NS(=O)(=O)c2cc(C)c(Cl)cc2Cl)ccc1Oc1cncc(Cl)c1
0.20
3. O=S(=O)(Nc1ccc(Oc2cnc3ccccc3c2)c(F)c1)c1ccc(Cl)cc1Cl
1.91
4. O=S(=O)(Nc1cc(Cl)c(Oc2cnc3ccccc3c2)c(Cl)c1)c1ccc(C(F)(F)F)cc1Cl
2.05
5. CC(=O)c1cc(NS(=O)(=O)c2ccc(Cl)cc2Cl)ccc1Oc1cnc2ccccc2c1
0.53

Lookup: What measured log10 of AUC(0-t) at 24 h goes with O=S(=O)(Nc1cc(Cl)c(Oc2cnc3ccccc3c2)c(Cl)c1)c1ccc(Cl)cc1Cl ?
Found: 1.48

Lookup: What measured log10 of AUC(0-t) at 24 h goes with N#Cc1cc(NS(=O)(=O)c2ccc(Cl)cc2Cl)ccc1Oc1cncc(Cl)c1 ?
Found: 1.49

Lookup: What measured log10 of AUC(0-t) at 24 h goes with O=S(=O)(Nc1cc(Cl)c(Oc2cncc(Cl)c2)c(Cl)c1)c1ccc(Cl)cc1Cl ?
Found: 0.68

----------
test description: Half life in Sprague-Dawley rat at 5 mg/kg
Type: ADME, organism-based
Parameters: dose 5 mg/kg
condition description: in vivo
readout: half-life
Phrase the answer as number then unit, nothing more needed.

Lookup: What measured half-life goes with CCNC(=O)c1cc(NS(=O)(=O)c2cc(C)c(Cl)cc2Cl)ccc1Oc1cncc(Cl)c1 ?
Found: 40 min
